Origin of the recorded values: patent US20140163023A1

- Assay target: PI3Kα (Homo sapiens, UniProt P42336)
- Construct: endogenous in cells; host or cells: Jurkat (ATCC TIB-152, clone E6-1) and Ramos (ATCC CRL-1596), 1:1 lysate mix
- Sequence (P42336 whole entry): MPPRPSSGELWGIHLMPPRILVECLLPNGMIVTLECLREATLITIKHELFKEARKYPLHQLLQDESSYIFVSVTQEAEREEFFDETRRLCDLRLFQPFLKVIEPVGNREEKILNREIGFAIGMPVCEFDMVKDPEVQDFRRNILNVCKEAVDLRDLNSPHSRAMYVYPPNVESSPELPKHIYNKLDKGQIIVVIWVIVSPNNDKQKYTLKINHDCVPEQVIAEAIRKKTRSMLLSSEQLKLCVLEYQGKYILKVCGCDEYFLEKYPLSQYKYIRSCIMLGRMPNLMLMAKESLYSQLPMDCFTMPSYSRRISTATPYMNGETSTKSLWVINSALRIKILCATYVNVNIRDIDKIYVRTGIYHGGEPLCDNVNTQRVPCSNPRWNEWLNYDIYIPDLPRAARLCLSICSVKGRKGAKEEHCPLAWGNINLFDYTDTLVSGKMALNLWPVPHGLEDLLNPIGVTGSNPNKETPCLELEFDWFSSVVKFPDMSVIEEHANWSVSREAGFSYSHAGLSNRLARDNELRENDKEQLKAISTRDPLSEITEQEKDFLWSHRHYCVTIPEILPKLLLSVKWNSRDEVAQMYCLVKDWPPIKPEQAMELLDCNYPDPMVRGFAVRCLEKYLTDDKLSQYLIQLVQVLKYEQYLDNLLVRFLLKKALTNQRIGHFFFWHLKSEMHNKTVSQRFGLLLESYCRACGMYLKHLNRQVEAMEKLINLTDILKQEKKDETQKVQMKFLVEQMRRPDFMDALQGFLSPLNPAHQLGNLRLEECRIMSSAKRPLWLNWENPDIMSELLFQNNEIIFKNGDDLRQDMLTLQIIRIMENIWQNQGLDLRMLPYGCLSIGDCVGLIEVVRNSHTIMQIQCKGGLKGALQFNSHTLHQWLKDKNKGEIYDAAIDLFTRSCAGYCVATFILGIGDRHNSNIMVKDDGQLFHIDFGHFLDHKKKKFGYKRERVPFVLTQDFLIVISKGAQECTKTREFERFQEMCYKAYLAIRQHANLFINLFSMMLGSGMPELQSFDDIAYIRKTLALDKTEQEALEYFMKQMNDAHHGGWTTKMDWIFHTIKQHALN
- Sequence (P27986 whole entry partner): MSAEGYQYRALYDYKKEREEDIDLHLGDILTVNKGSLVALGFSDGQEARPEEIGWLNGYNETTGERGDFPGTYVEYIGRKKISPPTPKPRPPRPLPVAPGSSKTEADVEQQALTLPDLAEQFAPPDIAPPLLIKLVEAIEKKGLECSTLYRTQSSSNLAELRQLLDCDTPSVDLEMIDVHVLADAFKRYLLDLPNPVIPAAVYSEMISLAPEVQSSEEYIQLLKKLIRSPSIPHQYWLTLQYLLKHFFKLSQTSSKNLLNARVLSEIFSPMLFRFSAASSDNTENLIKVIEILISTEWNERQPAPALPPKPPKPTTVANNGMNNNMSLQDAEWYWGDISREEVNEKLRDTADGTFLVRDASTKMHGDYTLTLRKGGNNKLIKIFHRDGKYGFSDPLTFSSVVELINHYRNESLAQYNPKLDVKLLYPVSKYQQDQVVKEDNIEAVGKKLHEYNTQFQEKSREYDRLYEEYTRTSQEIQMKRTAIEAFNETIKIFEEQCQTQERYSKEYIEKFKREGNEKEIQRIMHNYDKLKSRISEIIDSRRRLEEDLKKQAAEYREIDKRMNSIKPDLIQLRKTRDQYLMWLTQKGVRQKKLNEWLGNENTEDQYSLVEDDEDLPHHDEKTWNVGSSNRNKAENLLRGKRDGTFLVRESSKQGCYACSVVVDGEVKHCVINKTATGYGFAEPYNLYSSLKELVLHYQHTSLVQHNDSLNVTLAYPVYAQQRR
- Procedure details: kinobeads assay, PI3Kα
- Format: binding
- Assay context: 1:1 mix of Jurkat and Ramos cell lysates, read-out: Inhibition values (IC50 in μM) as determined in the kinobeads assay, PI3Kα
Structures can show the parent of a compound that is named as a salt.
Entries and their IC50 values follow.

{"Compound": "O=C(Nc1ccc(-c2nc(N3CCOCC3)nc3c2CNC3)cc1)NC1CC1", "IC50": "10 to 100 µM"}
{"Compound": "C[C@H]1COCCN1c1nc2c(c(-c3ccc(NC(=O)NC4CC4)cc3)n1)CN(C(=O)C1CCCN1)C2 (some centres unmarked) [Example 41, hydrochloride]", "IC50": "10 to 100 µM"}
{"Compound": "C[C@H]1COCCN1c1nc2c(c(-c3ccc(NC(=O)NC4CC4)cc3)n1)CN(C)C2", "IC50": "10 to 100 µM"}
{"Compound": "C[C@H]1COCCN1c1nc2c(c(-c3ccc(NC(=O)NCCO)cc3)n1)CN(C1CCCCC1)C2", "IC50": "> 100 µM"}

Challenge: Value lookup for IC50; key = `C[C@H]1COCCN1c1nc2c(c(-c3ccc(NC(=O)NC4CC4)cc3)n1)CN(C(=O)CN(C)C)C2`
Response given: > 100 µM
